Consider the following compounds; for each one, report its pIC50.
- testTarget: UniProt Q96LB1
- testMethodNotes: MRGPRX2 Activity Assay (IP-1 HTRF, antagonist mode)
- runConditions: FlpIn TRex-MRGPRX2-HEK293 cells; versus 1 μM Cortistatin-14 agonist; 30 minutes preincubation
Answers are plain numbers, as −log10 of the molar value.

Solved entries:
Cc1nc(NC(=O)[C@@H](C)N2CCOCC2)cn1Cc1cc(F)cc(F)c1 (single isomer, unassigned) [Compound 24]    5.41
Cc1nc(NC(=O)[C@H](C)N2CCC(F)(F)[C@@H](c3cc[n+]([O-])cc3)C2)cn1Cc1cc(F)cc(F)c1 (single isomer, unassigned) [Compound 19]    8.68
C[C@@H](C(=O)Nc1cn(Cc2ccc(Cl)cc2F)cn1)N1CCC(F)(F)[C@@H](c2cc[n+]([O-])cc2)C1 [Compound 31]    6.44

Could you report pIC50 for every entry in the following list?
1. Cc1nc(NC(=O)[C@H](C)N2CCC(F)(F)[C@@H](c3cc[n+]([O-])cc3)C2)cn1Cc1cc(F)cc(C#N)c1 (single isomer, unassigned) [Compound 17]
2. C[C@@H](C(=O)Nc1cn(Cc2cc(Cl)cc(Cl)c2)cn1)N1CCC(F)(F)[C@@H](c2cc[n+]([O-])cc2)C1 [Compound 50]

1. 6.90
2. 7.35

###

- testTarget: human MRGPRX2 (Homo sapiens, UniProt Q96LB1)
- Sequence (Q96LB1 whole entry): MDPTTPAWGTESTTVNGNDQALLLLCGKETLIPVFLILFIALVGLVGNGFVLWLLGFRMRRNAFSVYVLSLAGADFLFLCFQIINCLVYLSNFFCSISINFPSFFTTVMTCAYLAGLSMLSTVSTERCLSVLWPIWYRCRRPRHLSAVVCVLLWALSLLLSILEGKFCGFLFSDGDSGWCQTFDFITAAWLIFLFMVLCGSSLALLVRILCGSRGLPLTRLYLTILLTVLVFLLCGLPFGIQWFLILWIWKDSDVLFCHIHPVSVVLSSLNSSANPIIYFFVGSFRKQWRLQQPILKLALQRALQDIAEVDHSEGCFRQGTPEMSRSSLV
- testMethodNotes: MRGPRX2 Activity Assay (IP-1 HTRF, antagonist mode)
- runConditions: FlpIn TRex-MRGPRX2-HEK293 cells; versus 1 μM Cortistatin-14 agonist; 30 minutes preincubation
Please map values of IC50 to classes as shown: bottom bin (below 8 nM), middle bin (8 nM to below 200 nM), top bin (200 nM or more)

Where would C[C@@H](C(=O)Nc1cn2c(n1)CC[C@@H]2c1cc(F)cc(F)c1)N1CCC(F)(F)[C@@H](c2ccc(=O)n(C)c2)C1 (single isomer, unassigned) [Compound 532] land among the classes by reported IC50?
top bin

Where would C[C@@H](C(=O)Nc1cn2c(n1)CC[C@@H]2c1cc(F)cc(F)c1)N1CCC(F)(F)[C@H](c2c[nH]c(=O)cn2)C1 (single isomer, unassigned) [Compound 528] land among the classes by reported IC50?
bottom bin

Where would C[C@H](C(=O)Nc1cn(Cc2cc(F)cc(F)c2)cn1)N1CCC(F)(F)[C@@H](c2ccc(=O)[nH]c2)C1 (single isomer, unassigned) [Compound 55] land among the classes by reported IC50?
bottom bin

Where would C[C@H](C(=O)Nc1nc2ccccc2s1)N1CCC(F)(F)[C@@H](c2cc[n+]([O-])cc2)C1 (single isomer, unassigned) [Compound 85] land among the classes by reported IC50?
middle bin

Where would C[C@@H](C(=O)Nc1nc2cc3c(cc2s1)OCO3)N1CCC(F)(F)[C@@H](c2cc[n+]([O-])cc2)C1 (single isomer, unassigned) [Compound 11] land among the classes by reported IC50?
bottom bin

###

- testTarget: human MRGPRX2 (Homo sapiens)
- testMethodNotes: MRGPRX2 Activity Assay (IP-1 HTRF, antagonist mode)
- runConditions: FlpIn TRex-MRGPRX2-HEK293 cells; versus 1 μM Cortistatin-14 agonist; 30 minutes preincubation
Consider the following molecules; for each one, report its pIC50.
Give bare numbers, as −log10 of the molar value.

Solved entries:
C[C@@H](C(=O)Nc1cn2c(n1)CC[C@@H]2c1cc(F)cc(F)c1)N1CCC(F)(F)[C@@H](c2cc[n+]([O-])c(CO)c2)C1 (single isomer, unassigned)    5.26
C[C@H](C(=O)Nc1cn2c(n1)CC[C@@H]2c1cc(F)cc(F)c1)N1CCC(F)(F)[C@@H](c2cc[n+]([O-])cc2)C1 (single isomer, unassigned)    5.06
C[C@H](C(=O)Nc1cn2c(n1)CC[C@@H]2c1cc(F)cc(F)c1)N1CCCCC1 (single isomer, unassigned)    6.16

// pIC50 value for C[C@H](C(=O)Nc1cn2c(n1)CC[C@H]2c1cc(F)cc(F)c1)N1CCC(F)(F)[C@@H](c2cc[n+]([O-])cc2)C1 (single isomer, unassigned) : 5.93
